- tested target: human CD33 V221A (human, UniProt P20138 18-364)
- Sequence (P20138 18-364 V221A limits assumed): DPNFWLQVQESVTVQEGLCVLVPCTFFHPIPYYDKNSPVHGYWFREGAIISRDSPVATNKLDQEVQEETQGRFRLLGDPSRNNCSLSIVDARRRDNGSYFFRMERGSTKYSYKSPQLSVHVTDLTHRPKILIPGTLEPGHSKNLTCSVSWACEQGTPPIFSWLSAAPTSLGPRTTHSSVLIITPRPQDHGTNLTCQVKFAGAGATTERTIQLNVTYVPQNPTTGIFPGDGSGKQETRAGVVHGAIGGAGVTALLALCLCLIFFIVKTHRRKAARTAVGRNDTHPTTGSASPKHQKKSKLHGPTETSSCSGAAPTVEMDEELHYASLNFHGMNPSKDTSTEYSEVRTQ
- assay text: alanine scan, flow cytometry, HEK293-T;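 also: antibody binding to each alanine-substituted CD33 mutant expressed transiently in HEK293-T, read as fluorescence minus background, mean of duplicates, relative to wild-type CD33 set as 100%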

[
  {
    "binder": "Refmab #1 (antibody, V domains shown, In the alanine scan antibodies were used as IgG or Fab; also called hP67.6) VH: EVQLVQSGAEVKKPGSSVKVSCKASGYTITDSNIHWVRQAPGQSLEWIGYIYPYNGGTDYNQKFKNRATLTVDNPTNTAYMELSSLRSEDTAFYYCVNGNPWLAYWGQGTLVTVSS VL: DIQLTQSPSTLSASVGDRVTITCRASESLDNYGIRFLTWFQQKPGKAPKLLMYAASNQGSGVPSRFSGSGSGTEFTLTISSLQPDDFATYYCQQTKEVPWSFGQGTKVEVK",
    "Mean % WT Binding / %": 91.9
  },
  {
    "binder": "Refmab #4 (antibody, V domains shown, In the alanine scan antibodies were used as IgG or Fab) VH: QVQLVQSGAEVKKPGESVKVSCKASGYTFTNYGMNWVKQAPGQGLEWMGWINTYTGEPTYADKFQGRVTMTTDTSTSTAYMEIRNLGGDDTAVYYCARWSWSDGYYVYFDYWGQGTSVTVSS VL: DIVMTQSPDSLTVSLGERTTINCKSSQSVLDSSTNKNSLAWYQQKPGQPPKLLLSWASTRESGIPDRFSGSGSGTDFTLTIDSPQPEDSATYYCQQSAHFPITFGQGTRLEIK",
    "Mean % WT Binding / %": 104
  },
  {
    "binder": "Refmab #3 (antibody, V domains shown, In the alanine scan antibodies were used as IgG or Fab) VH: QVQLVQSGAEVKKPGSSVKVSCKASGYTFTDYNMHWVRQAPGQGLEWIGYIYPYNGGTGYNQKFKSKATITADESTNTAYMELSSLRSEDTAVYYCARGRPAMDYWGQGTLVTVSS VL: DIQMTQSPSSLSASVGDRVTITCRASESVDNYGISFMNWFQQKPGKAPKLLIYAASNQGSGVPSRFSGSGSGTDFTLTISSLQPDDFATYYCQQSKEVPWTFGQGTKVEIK",
    "Mean % WT Binding / %": 89
  },
  {
    "binder": "Refmab #2 (antibody, V domains shown, In the alanine scan antibodies were used as IgG or Fab) VH: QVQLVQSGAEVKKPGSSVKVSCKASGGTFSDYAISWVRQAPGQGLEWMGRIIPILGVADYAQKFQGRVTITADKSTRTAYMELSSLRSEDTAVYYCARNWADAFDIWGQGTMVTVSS VL: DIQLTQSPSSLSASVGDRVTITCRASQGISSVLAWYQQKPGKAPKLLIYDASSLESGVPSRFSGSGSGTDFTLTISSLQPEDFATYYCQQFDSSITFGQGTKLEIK",
    "Mean % WT Binding / %": 92.3
  }
]

Taken from patent US20260242735A1.
